Biological target: T1, mouse folate receptor alpha (mFRα), recombinant protein (mouse, UniProt P35846 25-232)
T1 construct: Bought recombinant proteins (e.g. biotinylated, Acro Biosystems FO1-M82E9); also called mFOLR1; Ms FOLR1
T1 sequence (P35846 25-232 limits assumed): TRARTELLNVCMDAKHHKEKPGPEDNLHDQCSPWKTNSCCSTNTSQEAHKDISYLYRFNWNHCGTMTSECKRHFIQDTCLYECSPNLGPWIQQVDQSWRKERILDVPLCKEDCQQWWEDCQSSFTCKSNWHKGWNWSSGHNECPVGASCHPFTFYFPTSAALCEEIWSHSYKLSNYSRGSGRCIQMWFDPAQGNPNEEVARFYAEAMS
Assay: BLI tandem binning on mouse FRα; competitor (1st association) 3MFR60
property.label: normalized additional binding in 2nd association (%)
Output spec: scalar in %, unitless text.

# count of solved cases: 3
- VHH 2HFO42 (family 3) (VHH, also called 2HF042; Nb42) VHH: QVQLQESGGGLVQAGGSLRLSCAASGSGFSGMIMGWYRQVPGKQRELVATVTSHGTTNYADSVKGRFTISRDNAKNTVLLQMNSLKPEDTAVYYCNAHFPGIYWGKGTQVTVSS: -2
- VHH 3MFR60 (family 10) (VHH) VHH: QVQLQESGGGLVQAGGSLRVSCAASGIIFSMNGMGWFRQAPGKQRELVASITSGGSTKYADSVKGRFTISRDNAKNTVYLQMNSLKPEDTAVYYCNIQFGSRWSTYWGQGTQVTVSS: 0
- VHH 2HFO19 (family 1) (VHH, also called Nb19) VHH: QVQLQESGGGLVQPGGSLRVSCAASGFPFSTVYMSWVRQAPGKGLEWVSGINNDGGVIDYADSVKGRFTISRDNAKNTLYLQLNSLKPEDTALYFCARGRSFVATLSSSLRGQGTQVTVSS: -7

Now for another entry.
[ask] I'd like to know its normalized additional binding in 2nd association. The binder in question is VHH 2MFR32 (VHH, also called 2MF832) VHH: QVQLQESGGGLVQAGGSLRVSCAASGFPFSTVYMSWVRQAPGKGLEWVSGINSNGGVIDYADSVKGRFTISRDNANNTLYLQLNSLKPEDTALYFCAKGRAFVATMPSSLRGQGTQVTVSS
[reply] 100
